The values you see were collected from the supplement of paper PMC10724198.

protein stability index: recorded values
Tested on: Saccharomyces cerevisiae
experimental.protocol: protein stability index of tFT-peptide fusion (C-terminal peptide) (PSI (0-1 scale)); higher = more stable (slower turnover)
condition.summary: genetic background: das1 deletion; temperature: 30 C
Please respond with just the number, no unit label.

Please review the following examples before continuing.
- chain: "SNFSRTLGLEFI [YGL041C C-terminal 12 aa]"
  measured.value: 0.711
- chain: "CKATSLLLIPEG [YBL108W C-terminal 12 aa]"
  measured.value: 0.675
- chain: "LPVSDSRCYYIL [YML031C-A C-terminal 12 aa]"
  measured.value: 0.692
- chain: "KKRNWKRREASS [NRG2 C-terminal 12 aa]"
  measured.value: 0.698
- chain: "DEGVSLVFEVPN [SQT1 C-terminal 12 aa]"
  measured.value: 0.683
- chain: "QIEWVDINRVTY [RAD50 C-terminal 12 aa]"
  measured.value: 0.732

Please look at the following sequence next.
**Q:** Would you kindly share the measured protein stability index for LEKLCQKQSSTK [CMC1 C-terminal 12 aa] ?
**A:** 0.724
